This collection of values is drawn from PubChem BioAssay AID1159580.

assay: chemical genetic growth profiling, strain panel (AID 1159580);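 further: tested at 20 µM; growth read once vehicle control cultures reached saturation at 30 °C; 1 = growth at the plate median or of vehicle wells; lower values mean less growth of the strain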; details: S. cerevisiae deletion strains, growth OD, locus YOR119C, strain RIO1, stronger effect = lower value
Among all 5,500 compounds or so, about 2,000 (36%) were called active. Not shown: some 18% with an inconclusive outcome. The list shows a part of the results.
RECORDED_METRIC: normalized growth

INSERT INTO assay_data (molecule, recorded_metric, reported_value) VALUES
  ('Cc1nc(-c2cccnc2)nc(NCc2ccccc2)c1Cl', 'normalized growth', 0.889),
  ('O=C(Nc1ccccc1Sc1ccc([N+](=O)[O-])cc1[N+](=O)[O-])C(Cl)(Cl)Cl', 'normalized growth', 1.05),
  ('Cc1csc(NC(=O)Nc2ccc(C(F)(F)F)cc2)c1Cl', 'normalized growth', 0.942),
  ('COc1cccc(NC(=S)NC2CC(C)CC(C)(C)C2)c1 (stereo not given)', 'normalized growth', 1.04),
  ('C=CCc1c(CCC)nc(-c2ccccn2)[nH]c1=O', 'normalized growth', 0.905);
